FYI, the data here is from patent US5436273A.

Listed here: items and their measured LD50.
# PROCEDURE_TEXT: Acute toxicity test
# TEST_CONTEXT: mouse, in vivo, ip
// units = mg/kg; emit number, no label

Here's what some known entries look like.
Query: Please report LD50 for the following compound: CCN(CC)C(C)C#Cc1ccccc1 (stereo not drawn)
Reply: 88

Query: Please report LD50 for the following compound: CC(C#Cc1ccccc1)NCc1ccccc1 (stereo not drawn)
Reply: 309

From here, focus on the item given below.
Query: Please report LD50 for the following compound: C#CC(C)N (stereo not drawn)
Reply: 1370

* * *

Listed here: items and their measured TD50 at 0.5 h.
# PROCEDURE_TEXT: in vivo
# TEST_CONTEXT: mouse, ip

Here's what some known entries look like.
Query: Please report TD50 at 0.5 h for the following compound: CC(N)C#Cc1ccc(C#N)cc1 (stereo not shown)
Reply: > 100 mg/kg

Query: Please report TD50 at 0.5 h for the following compound: CC(N)C#Cc1ccc([N+](=O)[O-])cc1 (stereo not shown)
Reply: ~120 mg/kg

Query: Please report TD50 at 0.5 h for the following compound: CC(N)C#Cc1ccc(Cl)cc1 (stereo not shown)
Reply: ~65 mg/kg

From here, focus on the item given below.
Query: Please report TD50 at 0.5 h for the following compound: CC(N)C#Cc1ccccc1 (stereo not shown)
Reply: ~50 mg/kg
